Task for the reader: assign each of the following binders its reported kon.
Target: T1, hu-CD74 antigen (R&D SYSTEMS catalog #3590-CD-050) (human, UniProt P04233-2 73-232, limits assumed)
T1 construct: Bought antigen; also called rhCD74; human CD74
T1 sequence (looked up): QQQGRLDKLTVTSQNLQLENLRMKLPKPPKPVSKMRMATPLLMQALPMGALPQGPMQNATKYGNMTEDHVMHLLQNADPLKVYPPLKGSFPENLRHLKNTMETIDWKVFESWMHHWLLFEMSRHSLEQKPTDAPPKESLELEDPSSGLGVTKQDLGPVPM
Experiment: SPR (Biacore T200), captured on anti-human Fc, rhCD74 analyte
Could you give me the number in M⁻¹ s⁻¹? Just the number is fine.

Entry 1337-A04 light chain paired with VH 1251-A06 (SEQ ID NO: 236) (Fab, V domains shown, 'in Fab format') VH: QVQLVESGGGVVQPGRSLRLSCAASGFDFSSYGMHWVRQAPDKGLEWVAVIWDDGSDRYYADSVKGRFTISRDNSKNTLYLQMNSLRAEDTAVYYCARGGTRVLGAIHGTDVWGQGTTVTVSS VL: DIQMTQSPSSLSASVGDRVTITCRASQDIGRWVAWYQQKPEKAPKSLIYGASSLQSGVPSRFSGSGSGTDFTLTISSLQPEDFATYYCQQYNTYPLTFGGGTKVEIK : reported kon = ?
775000

Entry 1337-A08 light chain paired with VH 1251-A06 (SEQ ID NO: 236) (Fab, V domains shown, 'in Fab format') VH: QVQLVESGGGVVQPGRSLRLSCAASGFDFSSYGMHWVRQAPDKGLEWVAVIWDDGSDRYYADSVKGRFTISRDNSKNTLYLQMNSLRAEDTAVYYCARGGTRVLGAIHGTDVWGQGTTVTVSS VL: DIQMTQSPSSLSASVGDRVTITCRASQDIGSWVAWYQQKPEKAPKSLIYASDSLQSGVPSRFSGSGSGTDFTLTISSLQPEDFATYYCQQYNSYPLTFGGGTKVEIK : reported kon = ?
749000

These entries and their values trace back to patent US20170253656A1.
